Tested on: Candida albicans
TEST: Antimicrobial activity against Candida albicans ATCC 60193 at 10 mg/mL after 18 hrs by agar-well diffusion method
Type: functional
TEST_CONTEXT: ATCC 60193, 18 h, read-out: IZ
PROPERTY_NAME: zone of inhibition at 10000 µg/mL (mm)
Number in mm, nothing else.

INSERT INTO results (smiles_structure, test_value) VALUES
  ('Cc1ccc(NC(=S)NNC(=O)CSc2nnc(-c3ccncc3)n2-c2ccccc2)cc1', 7),
  ('CC(C)CSc1nnc(-c2ccncc2)n1-c1ccccc1', 8),
  ('Sc1nnc(CSc2nnc(-c3ccncc3)n2-c2ccccc2)o1', 6),
  ('CSc1nnc(-c2ccncc2)n1-c1ccccc1', 9);

Query molecule follows.
Ask: # query: zone of inhibition at 10000 µg/mL of entry `CCOC(=O)CSc1nnc(-c2ccncc2)n1-c1ccccc1`
Reply: 13

---

Test system: Yersinia pseudotuberculosis
TEST: Antimicrobial activity against Yersinia pseudotuberculosis ATCC 911 at 10 mg/mL after 18 hrs by agar-well diffusion method
Type: functional
TEST_CONTEXT: ATCC 911, 18 h, read-out: IZ
PROPERTY_NAME: zone of inhibition at 10000 µg/mL (mm)
Number in mm, nothing else.

Guide cases for zone of inhibition at 10000 µg/mL, answers given:
INSERT INTO measurements (smiles_structure, property_name, test_value) VALUES
  ('O=C(CSc1nnc(-c2ccncc2)n1-c1ccccc1)N/N=C/c1ccccn1', 'zone of inhibition at 10000 µg/mL', 30),
  ('O=C(CSc1nnc(-c2ccncc2)n1-c1ccccc1)N/N=C/c1ccc(F)cc1', 'zone of inhibition at 10000 µg/mL', 25),
  ('Cc1ccc(Nc2nnc(CSc3nnc(-c4ccncc4)n3-c3ccccc3)s2)cc1', 'zone of inhibition at 10000 µg/mL', 22),
  ('O=C(CSc1nnc(-c2ccncc2)n1-c1ccccc1)N/N=C/c1cccnc1', 'zone of inhibition at 10000 µg/mL', 7);

Ask: # query: zone of inhibition at 10000 µg/mL of entry `S=c1n(CNCCN2CCOCC2)nc(-c2ccncc2)n1-c1ccccc1`
Reply: 22

---

Test system: Yersinia pseudotuberculosis
TEST: Antimicrobial activity against Yersinia pseudotuberculosis ATCC 911 at 10 mg/mL after 18 hrs by agar-well diffusion method
Assay type: functional
TEST_CONTEXT: ATCC 911, 18 h, read-out: IZ
PROPERTY_NAME: zone of inhibition at 10000 µg/mL
A complete answer gives the number and then names the unit.

Guide cases for zone of inhibition at 10000 µg/mL, answers given:
INSERT INTO assay_data (smiles_structure, tested_on, test_value) VALUES
  ('CC(C)CSc1nnc(-c2ccncc2)n1-c1ccccc1', 'Yersinia pseudotuberculosis', '30 mm'),
  ('CN1CCN(Cn2nc(-c3ccncc3)n(-c3ccccc3)c2=S)CC1', 'Yersinia pseudotuberculosis', '24 mm'),
  ('O=C(CSc1nnc(-c2ccncc2)n1-c1ccccc1)N/N=C/c1ccccc1O', 'Yersinia pseudotuberculosis', '30 mm');

Ask: # query: zone of inhibition at 10000 µg/mL of entry `COc1ccc(/C=N/NC(=O)CSc2nnc(-c3ccncc3)n2-c2ccccc2)cc1`
Reply: 30 mm

Ask: Here is the next molecule: `CSc1nnc(-c2ccncc2)n1-c1ccccc1`
Reply: 30 mm

Ask: Here is the next molecule: `Cc1ccc(N(C)c2nnc(CSc3nnc(-c4ccncc4)n3-c3ccccc3)s2)cc1`
Reply: 16 mm
